Method: Solubility of the compound in 0.9% NaCl solution
Assay type: physicochemical
Known solubility of a selection of molecules
A number alone suffices; assume µg/mL.

# Molecule, Unit of measurement, Number
rows = [
    ("CCc1c2c(nc3ccc(OC(=O)N4CCC(N5CCCCC5)CC4)cc13)-c1cc3c(c(=O)n1C2)COC(=O)[C@]3(O)CC", "µg/mL", 1200),
]

Query: Which solubility value is on record for CCc1c2c(nc3ccc(O)cc13)-c1cc3c(c(=O)n1C2)COC(=O)[C@]3(O)CC [7-ETHYL-10-HYDROXYCAMPTOTHECIN] ?
Result: 17.6
